B1: glmS ribozyme (parent)
chain: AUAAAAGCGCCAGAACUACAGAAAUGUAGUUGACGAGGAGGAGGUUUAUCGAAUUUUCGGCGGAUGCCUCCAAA

Variants of: B1
Assay: KM; higher = weaker cofactor use; RNA array
Conditions: with glucosamine-6-phosphate
Assignment: determine reported KM for the given variants.
State the value with its unit after it.

Query: KM; subject: A39U U47A 3320 µM

Next record, please: G29C C58A 1420 µM

# repeat for U30C G32A 3840 µM

Thanks! And U45C U65G ? 1810 µM

Next record, please: A12C A36U 56.2 µM

Same read-out for A6C A53G ? 3110 µM

// query: A12U G40U 1410 µM

Next variant up: A14G A64G 2030 µM

Thanks! And A15C G41C ? 1850 µM

Likewise for A33C G66A ? 2470 µM

// repeat for G13C U54A and report 8810 µM

Further, for A53U U56A ? 1820 µM

Now the same for G44U U55A 891 µM

Next entry: U31G G40U 2730 µM

Same thing, different variant: A14G U56C 3490 µM

Next up: C11U C16U C71U 1100 µM

Try G41C U56G next. 2280 µM

Do the same for G32A C67U please 1940 µM

// same read-out, input: U56G G66C 1800 µM

A14U G44U , same question. 3310 µM

And A6G G66A ? 2650 µM

Now this one: A64G G66A 936 µM

Now consider U30A U49G . 3780 µM

Next record, please: A53U G66U 2320 µM

Ok, now A12C A39U 2230 µM

Same thing, different variant: A39C U46C U56C 2880 µM

Okay, and A15U U54G U65G ? 1670 µM

Field entry: G37A C71U 2690 µM

Further, for G32U G40C ? 1250 µM

Entry U31C A53G please 1960 µM

What do we get for A15G C67G ? 2600 µM

Queued: C11U C71G 408 µM

// repeat for U54A G66C and report 1230 µM

Now give it for G38U C68G too. 108 µM

Proceed to G32A C71U 4470 µM

Let us now turn to U47G A53G 804 µM

Then this variant: A14U A15U 2240 µM

Follow-up item: A12C U31G 2340 µM

What do you get for G43A U54G ? 2490 µM

Entry G13A G40C please 2940 µM

How about this variant: C16A U31A 3990 µM

Next variant: U46G G66A 2580 µM

Please do the same for C16G A53U as well. 1910 µM

Request: G59U C70U 899 µM

And A15G G51U C71A ? 510 µM

Continue with U30A G59A 2080 µM
